- ASSAY_TARGET: T1, mature human GDF-15 (human, UniProt Q99988 197-308)
- T1 construct: Homodimer; also called hGDF-15; recombinant hu-GDF15
- T1 sequence: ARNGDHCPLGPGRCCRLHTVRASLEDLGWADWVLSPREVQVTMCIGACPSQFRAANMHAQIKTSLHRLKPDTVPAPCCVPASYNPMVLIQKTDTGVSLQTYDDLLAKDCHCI
- ASSAY_COMMENT: HTRF epitope competition; competitor DyLight 650 labelled Antibody A; Europium labelled human GDF-15
Below, each of the binders is paired with its reported IC50 value.
The answer is to be given in nM; state only the numeric part.

AB1170006 (antibody, V domains shown) VH: EVQLQQSGPELVKPGASVKIPCKASGYTFTDYNMDWVKQSHGKSLEWIGDINPNNGVTIYNQKFKGKATLTVDKSSSTAYMELRSLTSEDTAVFYCAREELTGNAMDYWGQGTSVTVSS VL: DIQMTQSPASLSVSVGETVTITCRASENIYSHLAWYQQKQGKSPQLLVYAATNLADGVPSRFSGSGSGTQYSLKINSLQSEDFGSYYCQHFWGTPWTFGGGTKLEIK :: 97.1
AB1170241 (antibody, IgG1, V domains shown, Humanized IgG1 TM; Made from AB1170243 by changing NNG to NQG in heavy chain CDR2; not shown: human immunoglobulin kappa light chain constant domain) VH: QVQLVQSGSELKKPGASVKVSCKASGYTFTDYNMDWIRQSPGKGLEWIGDINPNQGGTFYNQKFKDRATLTVDKSTSTAYMELRSLRSDDTAVYYCAREEKLYFGLMDYWGQGTTVTVSS VL: DIQMTQSPSSLSASVGDRVTITCRASENIYSYLAWYQQKPGKAPKLLVYNAKTLAEGVPSRFSGSGSGIDFTLTISSLQPEDFATYYCQHQYGSPPTFGQGTKLEIK :: 0.212

Now let's try a different one.
Challenge: Please give the documented IC50 of AB1170242 (antibody, IgG1, V domains shown, Humanized IgG1 TM; not shown: human immunoglobulin kappa light chain constant domain) VH: QVQLQESGPGLLKPSQTLSLTCTVSGFSLSTYGMGVGWIRQPAGKGLEWLANIWWNDDKYYNSALKSRLTISKDTSKNQVSLKLSSVTAADTAVYYCAQEVYGWFAYWGQGTLVTVSS VL: DIQMTQSPSTLSASVGDRVTITCKASQNVGTNVAWYQQKPGQPPKALIYSASYRYSGVPDRFSGSGSGTDFTLTISSLQAEDVAVYYCQQYNSYPLTFGQGTKLEIK
Response given: 0.288
